Target: galectin-8 (N-terminal domain) (Homo sapiens, UniProt O00214)
Sequence (O00214 19-152 limits assumed): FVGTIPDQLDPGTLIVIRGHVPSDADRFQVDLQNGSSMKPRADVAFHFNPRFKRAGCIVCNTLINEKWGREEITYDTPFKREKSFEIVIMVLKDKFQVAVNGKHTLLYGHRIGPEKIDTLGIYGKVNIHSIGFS
Note to self: use True only for Kd readings below 50 µM; a reading exactly at 50 µM still gets False.

COMPOUND	GROUP
O=c1oc2cc(O)ccc2cc1COC1C(O)[C@H](S[C@@H]2OC(CO)[C@H](O)C(OCc3cc4ccc(O)cc4oc3=O)C2O)OC(CO)[C@@H]1O (stereo partly drawn)	True
O=c1oc2cccc(Cl)c2cc1CO[C@H]1[C@@H](O)[C@@H](CO)O[C@@H](S[C@@H]2O[C@H](CO)[C@H](O)[C@H](OCc3cc4c(Cl)cccc4oc3=O)[C@H]2O)[C@@H]1O	True
O=c1oc2ccc(F)cc2cc1CO[C@H]1[C@@H](O)[C@@H](CO)O[C@@H](S[C@@H]2O[C@H](CO)[C@H](O)[C@H](OCc3cc4cc(F)ccc4oc3=O)[C@H]2O)[C@@H]1O	True
O=c1oc2ccc(O)cc2cc1COC1C(O)[C@H](S[C@@H]2OC(CO)[C@H](O)C(OCc3cc4cc(O)ccc4oc3=O)C2O)OC(CO)[C@@H]1O (stereo partly drawn)	False
O=c1oc2ccc3ccccc3c2cc1CO[C@H]1[C@@H](O)[C@@H](CO)O[C@@H](S[C@@H]2O[C@H](CO)[C@H](O)[C@H](OCc3cc4c(ccc5ccccc54)oc3=O)[C@H]2O)[C@@H]1O	False
O=c1oc2cc(Cl)ccc2cc1CO[C@H]1[C@@H](O)[C@@H](CO)O[C@@H](S[C@@H]2O[C@H](CO)[C@H](O)[C@H](OCc3cc4ccc(Cl)cc4oc3=O)[C@H]2O)[C@@H]1O	False
O=C(NC1C(O)[C@H](S[C@@H]2OC(CO)[C@H](O)C(NC(=O)c3ccc4ccccc4c3)C2O)OC(CO)[C@@H]1O)c1ccc2ccccc2c1 (stereo partly drawn) [Compound 36, reference compound]	False
O=c1oc2cc(F)c(F)cc2cc1COC1C(O)[C@H](S[C@@H]2OC(CO)[C@H](O)C(OCc3cc4cc(F)c(F)cc4oc3=O)C2O)OC(CO)[C@@H]1O (stereo partly drawn)	True
O=c1oc2ccc(OC(F)(F)F)cc2cc1COC1C(O)[C@H](S[C@@H]2OC(CO)[C@H](O)C(OCc3cc4cc(OC(F)(F)F)ccc4oc3=O)C2O)OC(CO)[C@@H]1O (stereo partly drawn)	False
